Tested on: Inhibin beta A chain (activin A)
Assay: small molecules binding activin A – biochemical, small-molecule microarray, 635 nm fluorescence scan, primary screen (AID 1107);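 further: mouse activin A protein probed at 4.33 µg/mL on printed slides; score merges bound-protein fluorescence near 667 nm with spot signal-to-noise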
Details: INHBA, higher = more signal
As shown below, each of these compounds has a reported composite z-score value.
Write no unit; give the number alone.

Example cases with answers are listed next.
lineNotation	target	assayMetric	valueMeasured
CCCC[C@H]1C[C@@H]1[C@@H]1N(C(C)=O)[C@H](c2cccc(OC)c2)CC12CC2	Inhibin beta A chain (activin A)	composite z-score	0.596
COc1ccc([Si](C)(C)[C@@H]2[C@@H](CC(=O)N3CCC[C@H]3CO)O[C@]3(C(=O)N(Cc4cccc(N5CCCCC5=O)c4)c4ccccc43)[C@H]2C)cc1	Inhibin beta A chain (activin A)	composite z-score	0.27

Below: the item to evaluate.
Qu. For the record "C=CCOC(=O)[C@H]1[C@@H]2C(=O)O[C@@H](c3ccccc3)[C@@H](c3ccccc3)N2[C@@H](c2ccc(OCCOC(=O)[C@@H]3C[C@@H]4C(=O)N[C@@H](CCCCNC(C)=O)C(=O)N4[C@@H]3c3cccc(OCCO)c3)cc2)[C@]12C(=O)Nc1ccccc12" , what value of composite z-score is listed for Inhibin beta A chain (activin A)?
Ans. 0.239
